These entries and their values trace back to patent US20140302517A1.

# Assayed system: T1, huAbF46-H4-A1 (IgG2 Fc)
# T1 construct: It was biotinylated in some assays; also called anti-c-Met antibody; biotinylated anti-c-Met antibody
# T1 sequence (VH, as listed by the source, chain 1 of 2): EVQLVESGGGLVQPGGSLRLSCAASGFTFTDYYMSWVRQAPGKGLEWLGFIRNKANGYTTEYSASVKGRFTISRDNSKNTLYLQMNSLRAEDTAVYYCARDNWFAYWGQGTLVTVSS
# T1 sequence (VL, as listed by the source, chain 2 of 2): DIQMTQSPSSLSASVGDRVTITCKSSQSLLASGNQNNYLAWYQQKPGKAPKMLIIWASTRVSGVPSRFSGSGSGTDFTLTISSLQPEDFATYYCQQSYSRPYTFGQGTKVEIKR
# Assay method text: bridging ELISA: plate coated with anti-c-Met antibody, anti-idiotype antibody, biotinylated anti-c-Met antibody as detector
Measured quantity: binding result

EW16 (antibody, human IgG1, lambda, V domains shown) VH: EVQLLESGGGLVQPGGSLRLSCAASGFTFSDYYMSWVRLAPGKGLEWVSAISHSSGNTYYADSVKGRFTISRDNSKNTLYLQMNSLRAEDTAVYYCAKHLGAQSDEPDSSSNGMDVWGQGTLVTVSS VL: QSVLTQPPSASGTPGQRVTISCTGSSSNIGNNDVYWYQQLPGTAPKLLIYSDSNRPSGIPDRFSGSKSGTSASLAISGLRSEDEADYYCGTWDDSLNGYVFGGGTKLTVLG ... binds
EW26 (antibody, human IgG1, lambda, V domains shown) VH: EVQLLESGGGLVQPGGSLRLSCAASGFTFSNYAMSWVRQAPGKGLEWVSAIYPGGGNTYYADSVKGRFTISRDNSKNTLYLQMNSLRAEDTAVYYCAKSLSTHSVDEPSSDNAMDVWGQGTLVTVSS VL: QSVLTQPPSASGTPGQRVTISCTGSSSNIGSNSVSWYQQLPGTAPKLLIYDDSNRPSGVPDRFSGSKSGTSASLAISGLRSEDEADYYCASWDYSLNAYVFGGGTKLTVLG ... binds
